For each record, write down the corresponding fold change.
# Protocol text: viability loss with induced miR-34 in A549 – imaging, A549 dox-inducible miR-34, nuclei and caspase counts, primary screen (AID 1347080); also: test concentration not given here
# Assay context: A549 miR-34 inducible, Hoechst nuclei count, 48 h; measured here: relative caspase fold change +Dox/-Dox

Supply fold change value. Item: C[C@]12CC[C@@H]3c4cc(O)c(O)cc4CC[C@H]3[C@@H]1CC[C@@H]2O
2.78

Supply fold change value. Item: O=C(O)CCC/C=C\C[C@H]1[C@@H](O)CC(=O)[C@@H]1/C=C/[C@@H](O)COc1cccc(C(F)(F)F)c1
1.13

Supply fold change value. Item: O=c1nc2ccccc2c2n1CC(CN1CCN(c3ccccc3)CC1)N2 (stereo not given)
0.649

Supply fold change value. Item: NCC(=O)Nc1ccc(-n2nc(C(F)(F)F)cc2-c2ccc3c(ccc4ccccc43)c2)cc1
0.441

Supply fold change value. Item: CCCCCC#CCC#CCCCCCCCC(=O)O
0.839

Supply fold change value. Item: O=C(O)CCCCCCCCCCCNC(=O)NC12CC3CC(CC(C3)C1)C2
0.546

Supply fold change value. Item: C=C1C(=O)O[C@H](CCCCCCCC)[C@H]1C(=O)O
0.706

Supply fold change value. Item: Nc1ccn([C@@H]2O[C@H](CO)[C@@H](O)C2(F)F)c(=O)n1
2.54

Supply fold change value. Item: COc1cc([C@@H]2c3cc4c(cc3C(OC3OC5COC(C)OC5C(O)C3O)C3COC(=O)[C@@H]32)OCO4)cc(OC)c1O (stereo not given in full)
0.575

Supply fold change value. Item: CCCCCCCCCCCCCCCC(=O)NC[C@@H](C)O
0.848
